For each of the compounds below, state its log10 of MIC.
- Test system: V41
- test.method.notes: Gradient Plate in vitro method, MIC
- Assay type: cell-based, penicillin resistant Staphyloccus
- assay.conditions: V41, penicillin resistant Staphylococcus, read-out: Minimum Inhibitory Concentration
Short version: log10 scale, MIC, µg/mL.

[in] State, in one line, measured log10 of MIC of CNC(=O)NC(=O)NC(C(=O)NC1C(=O)N2C(C(=O)O)=C(CSc3nnc(C)s3)CSC12)c1ccc(O)cc1 (centres unmarked)
[out] 0.81

[in] State, in one line, measured log10 of MIC of CNC(=O)NC(=O)NC(C(=O)NC1C(=O)N2C(C(=O)O)=C(CSc3nnnn3C)CSC12)c1cccs1 (centres unmarked)
[out] -0.22

[in] State, in one line, measured log10 of MIC of CNC(=O)N(C)C(=O)NC(C(=O)NC1C(=O)N2C(C(=O)O)=C(CSc3nnnn3C)CSC12)c1cccs1 (centres unmarked)
[out] 0.48

[in] State, in one line, measured log10 of MIC of CC(=O)OCC1=C(C(=O)O)N2C(=O)C(NC(=O)C(NC(=O)N3CCNC3=O)c3ccccc3)[C@H]2SC1 (some centres unmarked)
[out] 0.30

[in] State, in one line, measured log10 of MIC of Cn1nnnc1SCC1=C(C(=O)O)N2C(=O)C(NC(=O)C(NC(=O)NC(N)=O)c3ccccc3)C2SC1 (centres unmarked)
[out] 0.40

[in] State, in one line, measured log10 of MIC of CNC(=O)N(C)C(=O)NC(C(=O)NC1C(=O)N2C(C(=O)O)=C(CSc3nnnn3C)CSC12)c1ccccc1 (centres unmarked)
[out] 0.70

[in] State, in one line, measured log10 of MIC of CNC(=O)N(C)C(=O)NC(C(=O)NC1C(=O)N2C(C(=O)O)=C(CSc3nnnn3C)CSC12)c1ccc(O)cc1 (centres unmarked)
[out] 0.60

[in] State, in one line, measured log10 of MIC of CNC(=O)N(C)C(=O)NC(C(=O)NC1C(=O)N2C(C(=O)O)=C(CSc3nnc(C)s3)CSC12)c1ccc(O)cc1 (centres unmarked)
[out] 0.90
